Data provenance is ChEMBL document CHEMBL3885861.

For each entry below, report its KIDNEY_R value.
species on record: Rattus norvegicus; assay: Open TG-GATES - Regimen: Daily Repeat; assay type: toxicity, organism-based, Sprague-Dawley; set-up: regimen Daily Repeat, gender Male, age 6 weeks; settings: in vivo, po, 0 mg/kg, 72 h, tissue Kidney, route gavage, dose level Control, time 3 day
Hi! Could you send only the number? It should be in g, unit omitted.

Recorded KIDNEY_R of CO[C@H]1/C=C/O[C@@]2(C)Oc3c(C)c(O)c4c(O)c(c(/C=N/N5CCN(C)CC5)c(O)c4c3C2=O)NC(=O)/C(C)=C\C=C\[C@H](C)[C@H](O)[C@@H](C)[C@@H](O)[C@@H](C)[C@H](OC(C)=O)[C@@H]1C , please.
1

Any idea what its KIDNEY_R is? The compound is CN(C)CCC=C1c2ccccc2CCc2ccccc21
0.9

Return reported KIDNEY_R; argument: O=C(O)c1cn(C2CC2)c2cc(N3CCNCC3)c(F)cc2c1=O
0.9

# lookup: KIDNEY_R of NC(=O)N1c2ccccc2C=Cc2ccccc21 [CARBAMAZEPINE]
1.1

====

species on record: Rattus norvegicus; assay: Open TG-GATES - Regimen: Single; assay type: toxicity, organism-based, Sprague-Dawley; parameters: regimen Single, gender Male, age 6 weeks; details: in vivo, po, 0 mg/kg, 6 h, tissue Plasma, route gavage, dose level Control
Give K for every item shown.
Dear colleague, please return just the value in meq/L, with no unit written.

Recorded K for O=C(O)c1cc(/N=N/c2ccc(S(=O)(=O)Nc3ccccn3)cc2)ccc1O , please?
4

Consider the compound shown here: CCc1cc(C(N)=S)ccn1 [ETHIONAMIDE] What is its recorded K?
5

// K lookup, key: O=C(O)c1cn(C2CC2)c2cc(N3CCNCC3)c(F)cc2c1=O
5.1

Fill in: K of CC(=O)Oc1ccccc1C(=O)O is ___
3.8

# query: K of entry Clc1ccccc1CN1CCc2sccc2C1
3.9

Fill in: K of COc1ccc(Cc2nccc3cc(OC)c(OC)cc23)cc1OC is ___
4.3

Consider the compound NC(=O)N/N=C/c1ccc([N+](=O)[O-])o1 and give its measured K.
4.2

What K value was documented for this compound, CN(C)CCC=C1c2ccccc2CCc2ccccc21 ?
4.2

Endpoint output: K of NC(=O)N1c2ccccc2C=Cc2ccccc21 [CARBAMAZEPINE] . Value?
3.9

Fill in: K of CSc1ccc2c(c1)N(CCC1CCCCN1C)c1ccccc1S2 (configuration not stated) is ___
5

# input compound: C[C@H](CS)C(=O)N1CCC[C@H]1C(=O)O ; wanted: its K
4.7

Name the recorded K for Cn1c(=O)c2[nH]cnc2n(C)c1=O.O .
4.4

====

organism: Rattus norvegicus; experiment: Open TG-GATES - Regimen: Single; assay type: toxicity, organism-based, Sprague-Dawley; design: regimen Single, gender Male, age 6 weeks; conditions: in vivo, po, 100 mg/kg, 9 h, tissue Plasma, route gavage, dose level Low
quantity kind: LDH (IU/L)
Write down the numeric answer in IU/L and omit the unit.

Would you mind telling me what LDH value was observed for C[C@H](CS)C(=O)N1CCC[C@H]1C(=O)O [CAPTOPRIL] ?
71

Could you tell me which LDH is on file for Clc1ccccc1CN1CCc2sccc2C1 [TICLOPIDINE] ?
151.2

If you can, please state the reported LDH value of O=C(O)c1cn(C2CC2)c2cc(N3CCNCC3)c(F)cc2c1=O [CIPROFLOXACIN] .
94.2

# input compound: CCc1cc(C(N)=S)ccn1 [ETHIONAMIDE] ; wanted: its LDH
95.6

Entry under review: O=C(O)c1cc(/N=N/c2ccc(S(=O)(=O)Nc3ccccn3)cc2)ccc1O [SULFASALAZINE] . Reported LDH?
198.8
